Every entry's value here was drawn from the supplement of paper PMC4862054.

system: DU-4475; test: normalised response (% of control), CellTox Green; higher = less cell death (100 = DMSO, 0 = benzethonium chloride kill control); settings: incubation time: 72 h
In this section, each of the molecules is paired with its reported normalised response.
The figure you give is taken to be in %; do not add the unit.

# example entries with known answers
MOLECULE	EXPERIMENTAL SYSTEM	UNIT SYMBOL	REPORTED MEASUREMENT
CC(=O)O[C@H]1C(=O)[C@@]2(C)[C@H]([C@H](OC(=O)c3ccccc3)[C@]3(O)C[C@H](OC(=O)[C@H](O)[C@@H](NC(=O)c4ccccc4)c4ccccc4)C(C)=C1C3(C)C)[C@]1(OC(C)=O)CO[C@@H]1C[C@@H]2O [Paclitaxel] (10 nM)	DU-4475	%	97.6
COc1cccc2c1C(=O)c1c(O)c3c(c(O)c1C2=O)C[C@@](O)(C(C)=O)C[C@@H]3O[C@H]1C[C@H](N)[C@H](O)[C@H](C)O1 [Daunorubicin] (100 nM)	DU-4475	%	100

Let us move to another entry and its normalised response.
Problem: Record request: normalised response value, item COC(=O)C[C@](O)(CCCC(C)(C)O)C(=O)O[C@@H]1C(OC)=C[C@]23CCCN2CCc2cc4c(cc2[C@H]13)OCO4 [Omacetaxine] (100 nM)
Result: 97.5
